Data origin, for the record: the supplement of paper PMC10307832

System: NCI-H1563
ASSAY_NAME: relative viability (nuclei count vs DMSO), 5 days (fraction); higher = more cells survive
TEST_CONTEXT: first compound 0.005 µM
ASSAY_METRIC: relative viability
Lab note: record just the number, no unit beside it.

Give relative viability only, for COc1cc2nccc(Oc3ccc(NC(=O)Nc4cc(C)on4)c(Cl)c3)c2cc1OC [Tivozanib] + COc1cc2c(Oc3ccc(NC(=O)C4(C(=O)Nc5ccc(F)cc5)CC4)cc3F)ccnc2cc1OCCCN1CCOCC1 [Foretinib] (partner 0.25 µM) , using NCI-H1563 data.
0.853

Give relative viability only, for Nc1ccn([C@@H]2O[C@H](CO)[C@@H](O)[C@@H]2O)c(=O)n1 [Cytarabine] + CCNC(=O)c1noc(-c2cc(C(C)C)c(O)cc2O)c1-c1ccc(CN2CCOCC2)cc1 [Luminespib] (partner 0.01 µM) , using NCI-H1563 data.
0.628

----------
System: NCI-H520
ASSAY_NAME: relative viability (nuclei count vs DMSO), 5 days (fraction); higher = more cells survive
TEST_CONTEXT: first compound 0.1265 µM
Kindly supply the reported relative viability values for the records listed here.
Lab note: record just the number, no unit beside it.

Quickly give me recorded relative viability for Cc1sc2c(c1C)C(c1ccc(Cl)cc1)=N[C@@H](CC(=O)OC(C)(C)C)c1nnc(C)n1-2 [JQ1] + O=C(c1cc(Cc2n[nH]c(=O)c3ccccc23)ccc1F)N1CCN(C(=O)C2CC2)CC1 [Olaparib] (partner 8 µM)
0.298

Quickly give me recorded relative viability for Cc1sc2c(c1C)C(c1ccc(Cl)cc1)=N[C@@H](CC(=O)OC(C)(C)C)c1nnc(C)n1-2 [JQ1] + COc1cccc2cc(-c3nc([C@H]4CC[C@H](C(=O)O)CC4)n4ncnc(N)c34)[nH]c12 [OSI-027] (partner 0.5 µM)
0.325

Quickly give me recorded relative viability for Cc1sc2c(c1C)C(c1ccc(Cl)cc1)=N[C@@H](CC(=O)OC(C)(C)C)c1nnc(C)n1-2 [JQ1] + CC1(C)CCC(c2ccc(Cl)cc2)=C(CN2CCN(c3ccc(C(=O)NS(=O)(=O)c4ccc(N[C@H](CCN5CCOCC5)CSc5ccccc5)c(S(=O)(=O)C(F)(F)F)c4)cc3)CC2)C1 [Navitoclax] (partner 0.5 µM)
1.19

Quickly give me recorded relative viability for Cc1sc2c(c1C)C(c1ccc(Cl)cc1)=N[C@@H](CC(=O)OC(C)(C)C)c1nnc(C)n1-2 [JQ1] + Nc1ncn([C@H]2C[C@H](O)[C@@H](CO)O2)c(=O)n1 [Decitabine] (partner 2 µM)
0.561

----------
Test system: NCI-H2342
ASSAY_NAME: relative viability (nuclei count vs DMSO), 5 days (fraction); higher = more cells survive
TEST_CONTEXT: first compound 0.000632 µM
ASSAY_METRIC: relative viability
Lab note: record just the number, no unit beside it.

Give relative viability only, for CC(=O)O[C@@]12CO[C@@H]1C[C@H](O)[C@@]1(C)C(=O)[C@H](O)C3=C(C)[C@@H](OC(=O)[C@H](O)[C@@H](NC(=O)OC(C)(C)C)c4ccccc4)C[C@@](O)([C@@H](OC(=O)c4ccccc4)[C@H]21)C3(C)C [Docetaxel] + CC(=O)Nc1cccc(-n2c(=O)n(C3CC3)c(=O)c3c(Nc4ccc(I)cc4F)n(C)c(=O)c(C)c32)c1 [Trametinib] (partner 0.02 µM) , using NCI-H2342 data.
0.836
